AC50 values, listed per item
# System: HTT mRNA canonical junction (CJ)
# PROCEDURE_TEXT: Splicing RT-qPCR assay, decrease of HTT canonical junction (CJ) mRNA
# Format: cell-based
# MEASUREMENT_CONTEXT: A673 or K562 cells, 24 hours compound treatment, concentration having 50% response in CJ decrease

* Cc1cn2cc(NC(=O)c3ccc(N4CCC(N(C)C)C4)c4cn(C)nc34)cc(F)c2n1 (stereo not shown) [Compound 258] | 1000 to 10000 nM
* Cc1cn2cc(NC(=O)c3ccc(N4CCN5CCCC5C4)c4cn(C)nc34)cc(F)c2n1 (stereo not shown) [Compound 250] | 100 to 1000 nM
* Cc1cn2cc(NC(=O)c3ccc(N4CCC(N5CCCC5)C4)c4cc(C)oc34)cc(F)c2n1 (stereo not shown) [Compound 204] | 1000 to 10000 nM

In the following, a different compound is considered.
[Q] Which AC50 reading was recorded for the compound Cc1cn2cc(NC(=O)c3ccc(N4C[C@H]5CC[C@@H](C4)N5)c4cn(C)nc34)cc(F)c2n1 [Compound 260] ?
[A] 100 to 1000 nM

* * *

# System: HTT mRNA alternative junction (AJ)
# PROCEDURE_TEXT: Splicing RT-qPCR assay, increase of HTT alternative junction (AJ) mRNA
# Assay type: cell-based
# MEASUREMENT_CONTEXT: A673 or K562 cells, 24 hours compound treatment, concentration having 50% response in AJ increase
# Method: Compounds described herein were used to modulate RNA transcript abundance in cells. The expression of a target mRNA was measured by detecting the formation of an exon-exon junction in the canonical transcript (CJ). A compound mediated exon-inclusion event was detected by observing an increase in formation of a new junction with an alternative exon (AJ). […] After treatment, the levels of the HTT mRNA targets were determined from each sample of cell lysate by cDNA synthesis followed by qPCR. […]
AC50 for assorted compounds

Below: 3 compounds and their reported AC50.
* Cn1cc2c(N3CCNCC3)ccc(C(=O)Nc3cn[nH]c3)c2n1 [Compound 270] | > 10 µM
* Cc1nc2c(F)cc(NC(=O)c3ccc(N4CCNCC4)c4cn(C)nc34)cc2s1 [Compound 235] | 1 to 10 µM
* Cc1cn2nc(NC(=O)c3ccc(N4CCNCC4)c4cc(C)oc34)cc2c(C)n1 [Compound 265] | > 10 µM

[Q] Give the measured AC50 of Cc1cn2cc(NC(=O)c3ccc(N4CC5(CN(C)C5)C4)c4cc(C)oc34)cc(F)c2n1 [Compound 206] .
[A] 1 to 10 µM

[Q] If you can, please state the reported AC50 value of Cc1cn2cc(NC(=O)c3ccc(N4CCNCC4)c4cn(C)nc34)cc(C)c2n1 [Compound 238] .
[A] 1 to 10 µM

* * *

# Tested on: HTT mRNA canonical junction (CJ)
# PROCEDURE_TEXT: Splicing RT-qPCR assay, decrease of HTT canonical junction (CJ) mRNA
# Type: cell-based
# MEASUREMENT_CONTEXT: A673 or K562 cells, 24 hours compound treatment, concentration having 50% response in CJ decrease
Entries and their AC50

Recorded results for 2 molecules are shown here.
- Cc1cn2cc(NC(=O)c3ccc(N4CCNC(C)C4)c4cc(C)oc34)cc(F)c2n1 (stereo not shown): 1000 to 10000 nM
- Cc1cn2cc(NC(=O)c3ccc(N4CCNC(C)C4)c4cn(C)nc34)cc(F)c2n1 (stereo not shown): 100 to 1000 nM

[Q] Requested field: AC50. Item: Cc1cn2cc(NC(=O)c3ccc(N4CCN(C)C(C)C4)c4cn(C)nc34)cc(F)c2n1 (stereo not shown)
[A] 100 to 1000 nM

[Q] If you can, please state the reported AC50 value of Cc1cn2cc(NC(=O)c3ccc(N(C)C4CC(C)(C)NC(C)(C)C4)c4cn(C)nc34)cc(F)c2n1 .
[A] > 10000 nM

* * *

# System: HTT mRNA alternative junction (AJ)
# PROCEDURE_TEXT: Splicing RT-qPCR assay, increase of HTT alternative junction (AJ) mRNA
# Assay type: cell-based
# MEASUREMENT_CONTEXT: A673 or K562 cells, 24 hours compound treatment, concentration having 50% response in AJ increase
PROPERTY_NAME: AC50

- Cc1cn2cc(NC(=O)c3ccc(N4CCN(C)CC4)c4cn(C)nc34)cc(F)c2n1: 0.1 to 1 µM

[Q] So what's the measured AC50 for this one? Cc1cn2cc(NC(=O)c3ccc(N4C[C@H]5CC[C@@H](C4)N5)c4cn(C)nc34)cc(Cl)c2n1
[A] 1 to 10 µM

[Q] If you can, please state the reported AC50 value of Cc1cc2c(N3CCNCC3)ccc(C(=O)Nc3ccc4cn(C)nc4c3)c2o1 .
[A] 1 to 10 µM

[Q] Need AC50 of CCNC1CCN(c2ccc(C(=O)Nc3cc(F)c4nc(C)cn4c3)c3oc(C)cc23)CC1 , thanks.
[A] 1 to 10 µM

* * *

# Tested on: HTT mRNA canonical junction (CJ)
# PROCEDURE_TEXT: Splicing RT-qPCR assay, decrease of HTT canonical junction (CJ) mRNA
# Type: cell-based
# MEASUREMENT_CONTEXT: A673 or K562 cells, 24 hours compound treatment, concentration having 50% response in CJ decrease
PROPERTY_NAME: AC50

- Cc1cn2cc(NC(=O)c3ccc(N4CCNC5(CC5)C4)c4cc(C)oc34)cc(F)c2n1 [Compound 194]: 1 to 10 µM
- Cc1cn2cc(NC(=O)c3ccc(C4CCNCC4)c4oc(C)nc34)cc(F)c2n1 [Compound 187]: 0.1 to 1 µM
- Cc1cn2cc(NC(=O)c3ccc(N4CCNCC4)c4cc(C)oc34)c(C)cc2n1 [Compound 262]: > 10 µM

We next turn to a different molecule, shown below.
[Q] For the molecule shown here, Cn1cc2c(F)cc(NC(=O)c3ccc(N4CCNCC4)c4cn(C)nc34)cc2n1 [Compound 231] , give the reported AC50.
[A] > 10 µM

* * *

# Test system: HTT mRNA canonical junction (CJ)
# PROCEDURE_TEXT: Splicing RT-qPCR assay, decrease of HTT canonical junction (CJ) mRNA
# Type: cell-based
# MEASUREMENT_CONTEXT: A673 or K562 cells, 24 hours compound treatment, concentration having 50% response in CJ decrease
Counter-ions that a name gives are not always drawn.
PROPERTY_NAME: AC50

Example cases with answers are listed next.
• Cc1cn2cc(NC(=O)c3ccc(N4CCC(NC(C)(C)C)C4)c4cn(C)nc34)cc(F)c2n1 (centres unmarked) = > 10 µM
• Cc1cn2cc(NC(=O)c3ccc(N4CC5(CN(C)C5)C4)c4cc(C)oc34)cc(F)c2n1 = 1 to 10 µM

[Q] // lookup AC50 for Cc1nc2c(F)cc(NC(=O)c3ccc(N4CCNCC4)c4cn(C)nc34)cc2o1
[A] 1 to 10 µM

[Q] Would you mind telling me what AC50 value was observed for Cn1cc2c(N3CCNCC3)ccc(C(=O)Nc3cn[nH]c3)c2n1 ?
[A] > 10 µM

[Q] Item Cc1cn2cc(NC(=O)c3ccc(C4CCNCC4)c4ccoc34)cc(F)c2n1 [Compound 149, hydrochloride] has what recorded AC50?
[A] 1 to 10 µM

* * *

# Test system: HTT mRNA alternative junction (AJ)
# PROCEDURE_TEXT: Splicing RT-qPCR assay, increase of HTT alternative junction (AJ) mRNA
# Assay type: cell-based
# MEASUREMENT_CONTEXT: A673 or K562 cells, 24 hours compound treatment, concentration having 50% response in AJ increase
PROPERTY_NAME: AC50

Some solved entries appear below for comparison.
• Cc1cc2c(N3CCNCC3)ccc(C(=O)Nc3cc(F)c4cn(C)nc4c3)c2o1 = 1000 to 10000 nM
• Cc1cn2cc(NC(=O)c3ccc(N4CCC(N5CCCC5)C4)c4cn(C)nc34)cc(F)c2n1 (centres unmarked) = 100 to 1000 nM
• Cc1cn2cc(NC(=O)c3ccc(N4CCC(NC(C)(C)C)CC4)c4cn(C)nc34)cc(F)c2n1 = 1000 to 10000 nM
• Cc1cn2cc(NC(=O)c3ccc(N4CCC(N(C)C)C4)c4cc(C)oc34)cc(F)c2n1 (centres unmarked) = 1000 to 10000 nM
• Cc1cn2cc(NC(=O)c3ccc(C4CCN(C)CC4)c4cc(C)oc34)cc(F)c2n1 = 1000 to 10000 nM

[Q] I'd like to know its AC50. The compound in question is Cc1cn2nc(NC(=O)c3ccc(N4CCNCC4)c4nn(C)cc34)nc2c(C)n1
[A] > 10000 nM

[Q] Tell me the measured AC50 of Cc1cn2cc(NC(=O)c3ccc(N4CCNC5(CC5)C4)c4cn(C)nc34)cc(F)c2n1 , please.
[A] 1000 to 10000 nM

[Q] Could you share which AC50 value was measured for Cc1cn2cc(NC(=O)c3ccc(N4CCNCC4)c4c[nH]nc34)cc(Cl)c2n1 ?
[A] > 10000 nM

[Q] Requested field: AC50. Item: Cc1cn2cc(NC(=O)c3ccc(N4CC5(CNC5)C4)c4cc(C)oc34)cc(F)c2n1
[A] 1000 to 10000 nM

[Q] Look at this compound and give its reported AC50. Cc1cn2cc(NC(=O)c3ccc(C4CCNCC4)c4oc(C)nc34)cc(F)c2n1
[A] 100 to 1000 nM

[Q] Endpoint output: AC50 of CCNC1CCN(c2ccc(C(=O)Nc3cc(F)c4nc(C)cn4c3)c3nn(C)cc23)CC1 . Value?
[A] 100 to 1000 nM

[Q] What AC50 value was documented for this compound, Cc1cn2cc(NC(=O)c3ccc(N4CCNCC4)c4nc(C)oc34)cc(F)c2n1 ?
[A] 1000 to 10000 nM

[Q] AC50 lookup needed for Cc1cn2nc(NC(=O)c3ccc(N4CCNCC4)c4cn(C)nc34)cc2c(C)n1 , thanks.
[A] > 10000 nM

[Q] What value of AC50 has been reported for the following compound? Cc1cn2cc(NC(=O)c3ccc(N4CCC(N(C)C)CC4)c4cc(C)oc34)cc(F)c2n1
[A] 1000 to 10000 nM

Origin of the recorded values: patent US20230365566A1
